- METHOD: Solution stability test (residual ratio and generation of active form in buffers of pH 2.0 to 9.0)
- Assay type: physicochemical
- STATED CONDITIONS: pH2.0 buffer, 25° C., 25 umol/L, 12 hr
Structures can show the parent of a compound that is named as a salt.
Entries and their Residual ratio values follow.
Numbers only here, please. The scale is %.

Some compounds with known Residual ratio results, for comparison:
>>> meas_value("NCCCNC(=O)Oc1c(OC(=O)NCCCN)c(-c2ccccc2)c2c(c1-c1ccccc1)OCO2")
100
>>> meas_value("Cc1cc(OC(=O)NCCNCC(=O)O)c2ccccc2c1OC(=O)NCCNCC(=O)O [Example 2, dihydrochloride]")
102

Task item: Output Residual ratio of `CN1CC[C@H](c2c(OC(=O)N(C)CCN)cc(O)c3c(=O)cc(-c4ccccc4Cl)oc23)[C@H](O)C1`
Reply: 100

Task item: Output Residual ratio of CC(=O)c1cc2c(O)c3c(O)cccc3c(OC(=O)NCCCN)c2o1 [Reference Example 9, hydrochloride]
Reply: 85.2

Task item: Output Residual ratio of CC(=O)c1cc2c(OC(=O)NCCNCC(=O)O)c3ccsc3c(OC(=O)NCCNCC(=O)O)c2o1 [Example 1, dihydrochloride]
Reply: 102

Task item: Output Residual ratio of C[C@H]1COc2c1c(OC(=O)NCCNCC(=O)O)c(OC(=O)NCCNCC(=O)O)c1c3c(ccc21)C(C)(C)CCC3 [Example 12, dihydrochloride]
Reply: 98.5

---

Entries and their Residual ratio values follow.
- METHOD: Solution stability test (residual ratio and generation of active form in buffers of pH 2.0 to 9.0)
- Type: physicochemical
- STATED CONDITIONS: pH5.0 buffer, 25° C., 25 umol/L, 12 hr
Where a name gives a salt, the structure may show the parent alone.
Numbers only here, please. The scale is %.

Some compounds with known Residual ratio results, for comparison:
>>> meas_value("NCCCNC(=O)Oc1c(OC(=O)NCCCN)c(-c2ccccc2)c2c(c1-c1ccccc1)OCO2")
99.5
>>> meas_value("C[C@H]1COc2c1c(OC(=O)NCCCNCC(=O)O)c(OC(=O)NCCCNCC(=O)O)c1c3c(ccc21)C(C)(C)CCC3 [Example 13, dihydrochloride]")
98.6
>>> meas_value("C[C@H]1COc2c1c(OC(=O)NCCNCC(=O)O)c(OC(=O)NCCNCC(=O)O)c1c3c(ccc21)C(C)(C)CCC3 [Example 12, dihydrochloride]")
96.4
>>> meas_value("CN1CC[C@H](c2c(OC(=O)N(C)CCN)cc(O)c3c(=O)cc(-c4ccccc4Cl)oc23)[C@H](O)C1")
92.4

Task item: Output Residual ratio of CC(=O)c1cc2c(OC(=O)NCCNCC(=O)O)c3ccsc3c(OC(=O)NCCNCC(=O)O)c2o1 [Example 1, dihydrochloride]
Reply: 0.0

Task item: Output Residual ratio of CC(=O)c1cc2c(O)c3c(O)cccc3c(OC(=O)NCCCN)c2o1 [Reference Example 9, hydrochloride]
Reply: 87.4

Task item: Output Residual ratio of Cc1cc(OC(=O)NCCNCC(=O)O)c2ccccc2c1OC(=O)NCCNCC(=O)O [Example 2, dihydrochloride]
Reply: 100

---

- METHOD: Solution stability test (residual ratio and generation of active form in buffers of pH 2.0 to 9.0)
- Assay type: physicochemical
- STATED CONDITIONS: pH9.0 buffer, 25° C., 25 umol/L, 12 hr
Counter-ions that a name gives are not always drawn.
VALUE KIND: Residual ratio (%)
Numbers only here, please. The scale is %.

>>> meas_value("CN1CC[C@H](c2c(OC(=O)N(C)CCN)cc(O)c3c(=O)cc(-c4ccccc4Cl)oc23)[C@H](O)C1 [Example 8]")
0.1
>>> meas_value("NCCCNC(=O)Oc1c(OC(=O)NCCCN)c(-c2ccccc2)c2c(c1-c1ccccc1)OCO2 [Example 6]")
0.9
>>> meas_value("C[C@H]1COc2c1c(OC(=O)NCCCNCC(=O)O)c(OC(=O)NCCCNCC(=O)O)c1c3c(ccc21)C(C)(C)CCC3 [Example 13, dihydrochloride]")
99.1

Task item: Output Residual ratio of CC(=O)c1cc2c(O)c3c(O)cccc3c(OC(=O)NCCCN)c2o1 [Reference Example 9, hydrochloride]
Reply: 0.0

Task item: Output Residual ratio of CC(=O)c1cc2c(OC(=O)NCCNCC(=O)O)c3ccsc3c(OC(=O)NCCNCC(=O)O)c2o1 [Example 1, dihydrochloride]
Reply: 0.0

Task item: Output Residual ratio of Cc1cc(OC(=O)NCCNCC(=O)O)c2ccccc2c1OC(=O)NCCNCC(=O)O [Example 2, dihydrochloride]
Reply: 0.0

Hello, the source for this data is patent US20200207782A1, in case you need it.
